Recorded values, source patent US20260092093A1.

system.tested: T1, hIL-18Rα ECD-Fc fusion protein (human, UniProt Q13478 22-329)
T1 construct: extracellular domain; captured on Protein A sensor
T1 sequence (looked up): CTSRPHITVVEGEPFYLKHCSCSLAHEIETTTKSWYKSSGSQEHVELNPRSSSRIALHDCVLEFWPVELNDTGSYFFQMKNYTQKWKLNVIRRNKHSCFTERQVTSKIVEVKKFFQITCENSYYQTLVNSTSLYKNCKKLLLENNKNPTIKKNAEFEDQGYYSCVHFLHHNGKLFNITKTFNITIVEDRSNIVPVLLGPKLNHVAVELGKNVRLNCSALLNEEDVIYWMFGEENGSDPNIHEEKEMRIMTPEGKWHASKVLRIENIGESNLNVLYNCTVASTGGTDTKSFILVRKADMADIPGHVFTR
assay.text: BLI (Octet RED96), hIL-18Rα ECD-Fc on Protein A sensor
# maps each entry to its koff
// note: answer is a bare numeric in s⁻¹

{"binder": "IL-18 variant polypeptide M37 (ligand) YFPKLGSKLSVIRNLNDQVLFIDQGNRPLFEDMTDSDCRDNAPRTIFIISMYKQSVWRGMAVTISVKCEKISTLSCENKIISFKEMNPPDNIKDTKSDIIFFQRSVPGHDNKMQFESSSYEGYFLACEKERDLFKLILKKEDELGDRSIMFTVQNED", "scale.unit": "s⁻¹", "koff": 0.00883}

Below: the item to evaluate.
Query :: Endpoint output: koff of IL-18 variant polypeptide M4 (ligand) YFPKLKSKLSVIRNLNDQVLFIDQGNRPLFEDMTDSDCRDNAPRTIFIISMYKWSGVRGMAVTISVKCEKISTLSCENKIISFKEMNPPDVIKDTKSDIIFFQFSVPGHDNKMQFESSSYEGYFLACEKERDLFKLILKKEDELGDRSIMFTVQNED . Value?
Result :: 0.017
